- System under test: pig LTC4 receptor (Sus scrofa)
- Assay name: Increase of intracellular Ca++ concentration, HEK293-EBNA cells transfected with pEF-BOS-pig LTC4 receptor
- Protocol conditions: Logistic regression
- Description: 2.5×10^4 cells per well of HEK293-EBNA cells were inoculated to 96 well Black/clear bottom plate, collagen type I coated (BECTON DICKINSON). […] The time course of the changes of intracellular Ca^++ concentration was measured using FLIPR (Molecular Device). Further, the changes of intracellular Ca^++ concentration were measured using HEK293-EBNA cells under the same condition as in Example 5.
Property name: EC50 (nM)
Respond numerically; units are nM and should not be typed.

Structure string: CCCCC/C=C\C\C=C/C=C/C=C/[C@@H](SC[C@H](NC(=O)CC[C@H](N)C(=O)O)C(=O)NCC(=O)O)[C@@H](O)CCCC(=O)O
System under test: pig LTC4 receptor (Sus scrofa)
Quantitative readout: 5

# input for lookup
Give the value of EC50 reported for the following: `CCCCC/C=C\C\C=C/C=C/C=C/[C@@H](SC[C@H](N)C(=O)NCC(=O)O)[C@@H](O)CCCC(=O)O`
3.3

----------
- System under test: LTC4 receptor (Homo sapiens)
- Construct: expressed in transfected cells; whole cells or membrane fraction
- Sequence (Q9NS75 whole entry): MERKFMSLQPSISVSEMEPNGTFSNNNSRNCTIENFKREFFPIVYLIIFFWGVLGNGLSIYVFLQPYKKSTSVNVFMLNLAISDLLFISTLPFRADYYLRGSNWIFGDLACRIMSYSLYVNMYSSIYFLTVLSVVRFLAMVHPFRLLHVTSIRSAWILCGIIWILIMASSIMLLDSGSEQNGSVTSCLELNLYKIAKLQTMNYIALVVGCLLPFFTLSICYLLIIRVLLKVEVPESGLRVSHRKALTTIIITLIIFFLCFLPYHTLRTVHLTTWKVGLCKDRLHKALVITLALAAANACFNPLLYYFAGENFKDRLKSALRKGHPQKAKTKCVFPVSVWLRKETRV
- Assay name: Inhibition of increase of intracellular Ca++ concentration elicited by LTC4 or LTD4, CHO cells stably expressing LTC4 receptors
- Type: cell-based
Property name: pIC50
# log scale: pIC50 equals minus log10 of the concentration in mol/L

Give the value of pIC50 reported for the following: `CCCn1c(-c2ccc3c(S(=O)(=O)Nc4onc(C)c4C)cccc3c2)nc2ccccc21`
5.64

----------
Sequence of the target: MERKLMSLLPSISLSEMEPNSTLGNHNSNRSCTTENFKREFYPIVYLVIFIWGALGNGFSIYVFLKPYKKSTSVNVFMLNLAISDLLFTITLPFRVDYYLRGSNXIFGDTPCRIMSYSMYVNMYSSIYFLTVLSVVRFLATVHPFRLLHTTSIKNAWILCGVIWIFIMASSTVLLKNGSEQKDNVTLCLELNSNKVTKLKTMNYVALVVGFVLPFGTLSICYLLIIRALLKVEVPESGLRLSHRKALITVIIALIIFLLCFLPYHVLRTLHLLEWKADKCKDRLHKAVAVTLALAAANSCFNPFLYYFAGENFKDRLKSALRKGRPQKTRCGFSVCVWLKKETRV
Property name: pKd
# log scale: pKd equals minus log10 of the concentration in mol/L

Give the value of pKd reported for the following: `CCCCC/C=C\C\C=C/C=C/C=C/[C@@H](SC[C@H](NC(=O)CC[C@H](N)C(=O)O)C(=O)NCC(=O)O)[C@@H](O)CCCC(=O)O`
8.54
